system: A549; experiment: Concentration required for inhibiting proliferation of human lung tumor cell line A549 after 72 hr of incubation was determined; type: functional, cell-based; conditions: A549, 72 h
Each item that follows carries a reported IC50.
Note: unit µM is implicit; provide only the numeric part.

Query block: Item CCC1(c2ccccc2)CC(=O)C(C(CC(=O)c2ccc(-c3ccc(Br)cc3)cc2)c2ccccc2)=C(O)O1 (stereo not given) : provide IC50
Result block: 8.13

Query block: Item CC1(c2ccccc2)CC(=O)C(C2CC(c3ccc(-c4ccc(Br)cc4)cc3)Cc3ccccc32)=C(O)O1 (stereo not given) : provide IC50
Result block: 1.83

Query block: Item CC1(c2ccccc2)CC(=O)C(C(CC(=O)c2ccc(-c3ccc(Br)cc3)cc2)c2ccccc2)=C(O)O1 (stereo not given) : provide IC50
Result block: 9.18

Query block: Item COc1cc([C@@H]2c3cc4c(cc3[C@@H](O[C@@H]3O[C@@H]5CO[C@@H](C)O[C@H]5[C@H](O)[C@H]3O)[C@H]3COC(=O)[C@H]23)OCO4)cc(OC)c1O [ETOPOSIDE] : provide IC50
Result block: 1.06
